# System: CD2F1 mice, L1210 leukemia ip, survival T/C
# measurement.protocol: NCI In Vivo Anticancer Drug Screen. Data for tumor model L1210 Leukemia (intraperitoneal) in CD2F1 (CDF1) mice
# test.parameters: endpoint: mean survival time; dose: 25.0 mg/kg/injection; schedule: Q01DX009 (ip); vehicle: other
# Procedure: The antitumor activity of compounds was measured in mice bearing transplantable tumors. Survival or tumor size were measured and the results are expressed as the measurement made in the treated group (T) divided by the measurement made in the vehicle treated control group (C). The tumor model used in this assay is L1210 Leukemia (intraperitoneal) in CD2F1 (CDF1) mice
Toxic doses and inconclusive results are not listed. The calls were made as follows: active = survival T/C of 150% or more; inactive = T/C below 125% in these data.
Outcomes: YES = active, NO = inactive

> print(dat)
                                   compound  qualitative.label
1  CCC(CC)C(O)CC(O)CC(C)C (configuration not stated)                 NO
2  CCCCCCCCCCCCCC(=O)OC1C(CO)OC2C1Oc1nc(=N)ccn12 (configuration not stated)                YES
3    O=C(C=C(C(F)(F)F)C(F)(F)F)c1ccc(Br)cc1                 NO
4  COc1ccc(C(OC/C=C(\C)CCC=C(C)C)OC/C=C(\C)CCC=C(C)C)cc1                 NO
5             O=C(C1CCC2(CCCCC2)CC1)n1ccnc1                 NO
6                  Cc1nc(Cl)c(C)c(C(=O)O)n1                 NO
7  O=c1n(-c2ccccc2)c(=O)n2n1CC(c1ccccc1)=N2                 NO
